Each recorded value in this set is attributed to ChEMBL document CHEMBL3112411.

Tested on: A549
protocol notes: Potency ratio of DMXAA IC50 to compound IC50 for human A549 cells after 24 hrs by MTT assay
Type: functional
Listed here: items and their measured Ratio IC50.
recorded endpoint: Ratio IC50

{"smiles str": "COc1ccc(-c2oc3c(CC(=O)O)c(OC)ccc3c(=O)c2-c2ccc(F)cc2)cc1", "recorded endpoint": "Ratio IC50", "result": 0.6}
{"smiles str": "COc1ccc2c(=O)c(-c3ccccc3)c(-c3ccc(Cl)cc3)oc2c1CC(=O)O", "recorded endpoint": "Ratio IC50", "result": 1.2}
{"smiles str": "COc1ccc(-c2oc3c(CC(=O)O)c(OC)ccc3c(=O)c2-c2ccccc2)cc1", "recorded endpoint": "Ratio IC50", "result": 0.5}
{"smiles str": "COc1ccc(-c2c(-c3ccccc3)oc3c(CC(=O)O)c(OC)ccc3c2=O)cc1", "recorded endpoint": "Ratio IC50", "result": 0.8}
{"smiles str": "COc1ccc2c(=O)c(-c3ccc(F)cc3)c(-c3ccccc3)oc2c1CC(=O)O", "recorded endpoint": "Ratio IC50", "result": 1.6}
{"smiles str": "COc1ccc2c(=O)c(-c3ccc(F)cc3)c(-c3ccc(Cl)cc3)oc2c1CC(=O)O", "recorded endpoint": "Ratio IC50", "result": 1.2}
{"smiles str": "COc1ccc(-c2c(-c3ccc(OC)c(OC)c3)oc3c(CC(=O)O)c(OC)ccc3c2=O)cc1", "recorded endpoint": "Ratio IC50", "result": 0.6}
{"smiles str": "COc1ccc2c(=O)c(-c3ccccc3)c(-c3ccccc3)oc2c1CC(=O)O", "recorded endpoint": "Ratio IC50", "result": 0.5}
